System: SNB-78 CNS
protocol: NCI tumour cell line growth inhibition, 48 h
Below is a list of entries, each paired with its recorded TGI value.

Please review the entries below; each comes with its answer.
INSERT INTO results (test_smiles, quantity_kind, result) VALUES
  ('NCc1cccc(O)c1O', 'TGI', '> 100 µM'),
  ('CN(C)CCCNc1ccc2nnn3c4ccc(O)cc4c(=O)c1c23', 'TGI', '20.7 µM');

Look at this compound and give its reported TGI. CCOC(=O)N1CCc2cc(OC)c(OC)cc2/C1=C\c1ccc(OC)c(OC)c1 > 100 µM

Look at this compound and give its reported TGI. COc1ccc(CCn2c(=O)c3ccccc3n(C)c2=O)cc1 > 100 µM

---

Test system: RPMI-8226 leukemia
protocol: NCI tumour cell line growth inhibition, 48 h
quantity-kind: TGI

Please review the entries below; each comes with its answer.
INSERT INTO results (compound, target_or_system, result) VALUES
  ('CC(=O)OCC(=O)[C@@]12OC(C)(C)O[C@@H]1C[C@H]1[C@@H]3CC(C=O)=C4C=C(OCCCl)CC[C@]4(C)[C@@]3(F)[C@@H](O)C[C@@]12C', 'RPMI-8226 leukemia', '> 100 µM'),
  ('COc1cc(C2c3cc4c(cc3C3OC[C@@H]2C3CO)OCO4)cc(OC)c1OC (stereo not given in full)', 'RPMI-8226 leukemia', '> 100 µM'),
  ('CN(C)CCSS(=O)(=O)O', 'RPMI-8226 leukemia', '> 100 µM');

Look at this compound and give its reported TGI. COc1ccc(Nc2ccc3ccccc3c2-c2c(O)ccc3ccccc23)cc1 27.4 µM

Look at this compound and give its reported TGI. O=C(O)CCNCCCCNCCC(=O)O > 100 µM

---

Test system: LOX IMVI melanoma
protocol: NCI tumour cell line growth inhibition, 48 h
So basically: TGI at 3 µM or higher? That is met. Lower than 3 µM? That is not met.

INSERT INTO measurements (compound, group) VALUES
  ('CCN(c1cc(-c2ccc(CN3CCOCC3)cc2)cc(C(=O)NCc2c(C)cc(C)[nH]c2=O)c1C)C1CCOCC1', 'met');

Form field: TGI at least 3 µM? Entry: CN=C(/N=c1\ssc(=NC)n1C)N(C)C met

Form field: TGI at least 3 µM? Entry: C=CCOn1c(C=C)nc2ccc(C)cc21 met

Form field: TGI at least 3 µM? Entry: COc1cc(C)c(C2NC(=O)c3ccccc3N2)cc1C (stereo unspecified) met

Form field: TGI at least 3 µM? Entry: NN=C(CC(O)(C(F)(F)Cl)C(F)(F)Cl)CC(O)(C(F)(F)Cl)C(F)(F)Cl met

Form field: TGI at least 3 µM? Entry: O=C(Oc1ccc(CO[N+](=O)[O-])cc1)c1ccccc1 not met

Form field: TGI at least 3 µM? Entry: COc1ccc2[nH]c(O)c(/C=c3/cc4c(c(-c5ccc(F)c(OC)c5)n3)=Nc3ccccc3-4)c2c1 met

Form field: TGI at least 3 µM? Entry: CCOP(=O)(OCC)/C(=C/c1cccs1)CC(C)=O met

Form field: TGI at least 3 µM? Entry: C=C=C(CC(CC(=C)Br)(C(=O)OC)C(=O)OC)S(=O)(=O)c1ccccc1 not met

Form field: TGI at least 3 µM? Entry: O=C1NC(=O)C(C(CC(=O)c2ccc(Cl)cc2)c2ccc(Cl)cc2)C(=O)N1 (stereo unspecified) met

Form field: TGI at least 3 µM? Entry: CC1=Cc2ccc(C)cc2C(=O)C1=O met

---

Tested on: SF-295 CNS
protocol: NCI tumour cell line growth inhibition, 48 h
quantity-kind: TGI

Please review the entries below; each comes with its answer.
INSERT INTO assay_data (compound, target_or_system, result) VALUES
  ('C1=C2CCCC3=Cc4ccccc4OC23Oc2ccccc21', 'SF-295 CNS', '> 100 µM'),
  ('CCc1cc2c(c3c1CCCC3=O)CC1(Cc3ccc(C(=O)OC)cc3C1)C2 (stereo not drawn)', 'SF-295 CNS', '> 100 µM'),
  ('O=C(CCN1CCN2c3ccccc3CCC2C1)c1ccc(F)cc1 (stereo not drawn)', 'SF-295 CNS', '> 100 µM'),
  ('Cc1cc(N(CCC#N)CCC#N)ccc1N=Nc1ccc(Br)cc1', 'SF-295 CNS', '> 51 µM'),
  ('COc1ccc(C(O)c2cc3c(N)c(C(=O)Nc4cccc(Cl)c4)sc3nc2C)cc1 (stereo not drawn)', 'SF-295 CNS', '> 22.7 µM');

Write down the reported TGI of CC(C)(C)[Si](C)(C)OCc1cccc(OCCOc2cccc(CO[Si](C)(C)C(C)(C)C)c2[N+](=O)[O-])c1[N+](=O)[O-] , test system: SF-295 CNS. > 100 µM

Write down the reported TGI of CCOC(=O)Nn1c(CC#N)nnc1Cc1ccccc1 , test system: SF-295 CNS. > 100 µM

Write down the reported TGI of COc1ccc(OC)c(SC(CC(=O)c2ccccc2)c2ccccc2)c1 (stereo not drawn) , test system: SF-295 CNS. 31.6 µM

---

Tested on: CCRF-CEM leukemia
protocol: NCI tumour cell line growth inhibition, 48 h
Below is a list of entries, each paired with its recorded TGI value.

Please review the entries below; each comes with its answer.
INSERT INTO results (compound, result) VALUES
  ('CC(C)CCCC(C)[C@H]1CCC2[C@@H]3CCC4Nc5c(cnn5-c5ccccc5)C[C@]4(C)C3CC[C@@]21C (stereo not given in full)', '> 100 µM'),
  ('CC(C)(C)OC(=O)NCCCn1c2c(c3ccccc3c1=O)C(=O)c1ccccc1-2', '> 100 µM'),
  ('Cc1cc(N(CCC#N)CCC#N)ccc1N=Nc1ccc(Br)cc1', '> 31.6 µM');

Write down the reported TGI of C=C1CCC2(C#N)[C@H]3[C@H](CC[C@@H]2C)[C@@H](C)C[C@@H](CC(C)(C)NC(=O)CN2CCC2=O)[C@H]13 (stereo not given in full) , test system: CCRF-CEM leukemia. 80.3 µM

Write down the reported TGI of O=C(CCN1CCN2c3ccccc3CCC2C1)c1ccc(F)cc1 (stereo not given) , test system: CCRF-CEM leukemia. > 100 µM

---

Tested on: KM12 colon
protocol: NCI tumour cell line growth inhibition, 48 h
quantity-kind: GI50

INSERT INTO results (compound, quantity_kind, result) VALUES
  ('CN(C)c1nc2ccccc2c2c1c1c(n2Cc2ccccc2)-c2ccccc2C1=O', 'GI50', '> 100 µM'),
  ('C=CC(=O)Nc1cc(N2CCN(CC)CC2)ccc1Nc1cc(N(C)C(=O)Nc2c(Cl)c(OC)cc(OC)c2Cl)ncn1', 'GI50', '3.09 µM'),
  ('O=P1(S)OC[C@H]2O[C@@H]3[C@H](F)[C@@H]2OP(O)(=S)OC[C@H]2O[C@H]([C@H](F)[C@@H]2O1)n1cnc2c(ncnc21)NC/C=C/CNc1ncnc2c1ncn23 (stereo partly drawn)', 'GI50', '> 100 µM'),
  ('NCCOCCOCCNc1nc(-c2ccc(Cl)cc2)nc(N2CCN(c3ccccn3)CC2)n1', 'GI50', '1.84 µM');

Look at this compound and give its reported GI50. O=C(Oc1ccc(CO[N+](=O)[O-])cc1)c1ccccc1 0.163 µM

Look at this compound and give its reported GI50. Cc1nnc2n1N=C(c1ccc(Cl)cc1Cl)/C(=C/c1ccc(-c3ccc([N+](=O)[O-])cc3Cl)o1)S2 32.4 µM

Look at this compound and give its reported GI50. O=c1cc(N/N=C/c2ccc(F)cc2)c2cc(Cl)ccc2[nH]1 22 µM

Look at this compound and give its reported GI50. CCN(c1cc(-c2ccc(CN3CCOCC3)cc2)cc(C(=O)NCc2c(C)cc(C)[nH]c2=O)c1C)C1CCOCC1 19.7 µM

---

Test system: SF-268 CNS
protocol: NCI tumour cell line growth inhibition, 48 h
Below is a list of entries, each paired with its recorded TGI value.

INSERT INTO measurements (compound, target_or_system, quantity_kind, result) VALUES
  ('COC(=O)COc1ccc(/C=C2/N=C(c3ccccc3)N(c3c(C)n(C)n(-c4ccccc4)c3=O)C2=O)cc1', 'SF-268 CNS', 'TGI', '30.5 µM'),
  ('NNC(=O)C(=O)N/N=C1\CCC(=O)CC1C(=O)CCC(=O)Nc1ccc(Cl)cc1 (stereo unspecified)', 'SF-268 CNS', 'TGI', '> 100 µM'),
  ('Cc1nn(-c2ccccc2)c(C)c1/C=N/N=C1\S/C(=C\c2ccc(Cl)cc2)C(=O)N1c1ccccc1', 'SF-268 CNS', 'TGI', '> 100 µM'),
  ('c1ccc2c(c1)oc1ccc3nsnc3c12', 'SF-268 CNS', 'TGI', '> 100 µM');

Look at this compound and give its reported TGI. c1cncc(CNCc2cccnc2)c1 > 100 µM

Look at this compound and give its reported TGI. COc1ccc(Nc2ccc3ccccc3c2-c2c(O)ccc3ccccc23)cc1 35.9 µM
